# test-description: isobaric coefficient of expansion
# test-context: 288.15 K; 45000 kPa; Liquid; Microcalorimeter
Hi there, I'd appreciate the recorded isobaric coefficient of expansion for every entry that follows.

Report isobaric coefficient of expansion for CCCCCC[n+]1ccn(C)c1.O=S(=O)([N-]S(=O)(=O)C(F)(F)F)C(F)(F)F please.
0.000597 1/K

Would you mind doing CCn1cc[n+](C)c1.F[B-](F)(F)F [1-ethyl-3-methylimidazolium tetrafluoroborate] as well?
0.000556 1/K

Would you mind doing CCCCCCCC[n+]1ccn(C)c1.F[B-](F)(F)F [1-methyl-3-octylimidazolium tetrafluoroborate] as well?
0.000558 1/K

Would you mind doing CCCCCCn1cc[n+](C)c1.F[B-](F)(F)F [1-hexyl-3-methylimidazolium tetrafluoroborate] as well?
0.000558 1/K

Would you mind doing CCCC[n+]1cccc(C)c1.F[B-](F)(F)F [1-butyl-3-methylpyridinium tetrafluoroborate] as well?
0.000562 1/K

Would you mind doing CCn1cc[n+](C)c1.O=S(=O)([N-]S(=O)(=O)C(F)(F)F)C(F)(F)F as well?
0.000601 1/K

* * *

Hi there, I'd appreciate the recorded isobaric coefficient of expansion for every entry that follows.
# test-description: isobaric coefficient of expansion
# test-context: 328.15 K; 35000 kPa; Liquid; Microcalorimeter

Report isobaric coefficient of expansion for CCCCCCn1cc[n+](C)c1.F[B-](F)(F)F [1-hexyl-3-methylimidazolium tetrafluoroborate] please.
0.000549 1/K

Would you mind doing CCCCCCCC[n+]1ccn(C)c1.F[B-](F)(F)F [1-methyl-3-octylimidazolium tetrafluoroborate] as well?
0.000549 1/K

Would you mind doing CCCCCC[n+]1ccn(C)c1.O=S(=O)([N-]S(=O)(=O)C(F)(F)F)C(F)(F)F as well?
0.000591 1/K

Would you mind doing CCn1cc[n+](C)c1.F[B-](F)(F)F [1-ethyl-3-methylimidazolium tetrafluoroborate] as well?
0.000544 1/K

Would you mind doing CCn1cc[n+](C)c1.O=S(=O)([N-]S(=O)(=O)C(F)(F)F)C(F)(F)F as well?
0.000593 1/K

Would you mind doing CCCC[n+]1cccc(C)c1.F[B-](F)(F)F [1-butyl-3-methylpyridinium tetrafluoroborate] as well?
0.000545 1/K

* * *

# test-description: isobaric coefficient of expansion
# test-context: 298.15 K; 35000 kPa; Liquid; Microcalorimeter
Hi there, I'd appreciate the recorded isobaric coefficient of expansion for every entry that follows.

Report isobaric coefficient of expansion for CCCCCCn1cc[n+](C)c1.F[B-](F)(F)F [1-hexyl-3-methylimidazolium tetrafluoroborate] please.
0.000564 1/K

Would you mind doing CCCC[n+]1cccc(C)c1.F[B-](F)(F)F [1-butyl-3-methylpyridinium tetrafluoroborate] as well?
0.00056 1/K

Would you mind doing CCCCCC[n+]1ccn(C)c1.O=S(=O)([N-]S(=O)(=O)C(F)(F)F)C(F)(F)F as well?
0.000605 1/K

* * *

# test-description: isobaric coefficient of expansion
# test-context: 308.15 K; 50000 kPa; Liquid; Microcalorimeter
recorded-endpoint: isobaric coefficient of expansion

Report isobaric coefficient of expansion for CCCCCCCC[n+]1ccn(C)c1.F[B-](F)(F)F [1-methyl-3-octylimidazolium tetrafluoroborate] please.
0.000541 1/K

Would you mind doing CCCCCCn1cc[n+](C)c1.F[B-](F)(F)F [1-hexyl-3-methylimidazolium tetrafluoroborate] as well?
0.000541 1/K

Would you mind doing CCn1cc[n+](C)c1.F[B-](F)(F)F [1-ethyl-3-methylimidazolium tetrafluoroborate] as well?
0.000537 1/K

* * *

# test-description: isobaric coefficient of expansion
# test-context: 318.15 K; 15000 kPa; Liquid; Microcalorimeter
recorded-endpoint: isobaric coefficient of expansion

Report isobaric coefficient of expansion for CCn1cc[n+](C)c1.F[B-](F)(F)F [1-ethyl-3-methylimidazolium tetrafluoroborate] please.
0.000576 1/K

Would you mind doing CCCCCC[n+]1ccn(C)c1.O=S(=O)([N-]S(=O)(=O)C(F)(F)F)C(F)(F)F as well?
0.000637 1/K

Would you mind doing CCCC[n+]1cccc(C)c1.F[B-](F)(F)F [1-butyl-3-methylpyridinium tetrafluoroborate] as well?
0.000573 1/K

* * *

Hi there, I'd appreciate the recorded isobaric coefficient of expansion for every entry that follows.
# test-description: isobaric coefficient of expansion
# test-context: 338.15 K; 10000 kPa; Liquid; Microcalorimeter

Report isobaric coefficient of expansion for CCCCCC[n+]1ccn(C)c1.O=S(=O)([N-]S(=O)(=O)C(F)(F)F)C(F)(F)F please.
0.000637 1/K

Would you mind doing CCCC[n+]1cccc(C)c1.F[B-](F)(F)F [1-butyl-3-methylpyridinium tetrafluoroborate] as well?
0.000567 1/K

Would you mind doing CCCCCCCC[n+]1ccn(C)c1.F[B-](F)(F)F [1-methyl-3-octylimidazolium tetrafluoroborate] as well?
0.000584 1/K

Would you mind doing CCn1cc[n+](C)c1.F[B-](F)(F)F [1-ethyl-3-methylimidazolium tetrafluoroborate] as well?
0.000574 1/K
